# TARGET_UNDER_TEST: mTLR9 (Mus musculus, UniProt Q9EQU3)
# Construct: Splenocytes isolated from male C57/BL6 mice; from tissue; host or cells: splenocytes from the spleen of male C57BL/6 mice
# Sequence (Q9EQU3 26-1032): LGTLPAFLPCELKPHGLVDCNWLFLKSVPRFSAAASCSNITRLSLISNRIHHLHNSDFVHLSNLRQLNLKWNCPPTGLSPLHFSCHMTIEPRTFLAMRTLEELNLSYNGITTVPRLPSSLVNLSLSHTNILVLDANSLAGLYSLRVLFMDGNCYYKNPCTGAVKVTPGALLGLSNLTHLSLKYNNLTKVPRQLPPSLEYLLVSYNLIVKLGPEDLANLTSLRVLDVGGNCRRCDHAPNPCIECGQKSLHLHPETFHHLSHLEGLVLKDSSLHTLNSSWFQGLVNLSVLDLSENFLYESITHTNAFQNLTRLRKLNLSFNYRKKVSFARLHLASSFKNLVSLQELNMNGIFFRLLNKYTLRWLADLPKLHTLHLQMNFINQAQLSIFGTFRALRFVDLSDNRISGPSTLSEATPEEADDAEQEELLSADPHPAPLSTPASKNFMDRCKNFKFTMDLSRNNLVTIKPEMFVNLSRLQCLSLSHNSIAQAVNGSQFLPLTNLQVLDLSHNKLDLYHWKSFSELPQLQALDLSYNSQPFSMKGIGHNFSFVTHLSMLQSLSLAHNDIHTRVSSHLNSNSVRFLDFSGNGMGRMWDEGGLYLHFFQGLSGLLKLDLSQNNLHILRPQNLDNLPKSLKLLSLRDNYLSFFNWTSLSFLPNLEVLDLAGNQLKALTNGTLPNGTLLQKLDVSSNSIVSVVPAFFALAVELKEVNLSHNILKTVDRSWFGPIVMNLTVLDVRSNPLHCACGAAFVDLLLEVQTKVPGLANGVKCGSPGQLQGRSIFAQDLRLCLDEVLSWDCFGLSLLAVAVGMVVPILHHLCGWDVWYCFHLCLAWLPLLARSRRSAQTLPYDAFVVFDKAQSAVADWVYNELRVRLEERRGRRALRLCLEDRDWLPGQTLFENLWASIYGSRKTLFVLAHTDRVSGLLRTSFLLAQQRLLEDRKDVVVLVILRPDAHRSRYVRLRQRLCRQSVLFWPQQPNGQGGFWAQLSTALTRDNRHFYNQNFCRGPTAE
# ASSAY_PROTOCOL: mTLR9 antagonism (IL-6 and TNF-α release assay) in mouse splenocytes, CpG ODN-2006 stimulated
# Format: cell-based
# MEASUREMENT_SETUP: 1 μM; IL-6 release, mouse splenocytes; read-out: mTLR9 inhibitory activity (% at 1 μM), IL-6
# Protocol: mTLR9 and mTLR7 Antagonism (Cytokine Release Assay) in Mouse Splenocytes […] 500 μM stock of CpG ODN-2006 was prepared in sterile, endotoxin-free water. […] S/B Ratio, % Activity and % Inhibition was calculated using MS Excel. […]
MEASURED_ENDPOINT: inhibition at 1 µM

MOLECULE: CC(C)N1CCN(c2ccc(-c3nccc4[nH]c(CN5CCOCC5)cc34)cn2)CC1 [Example A53]
MEASURED_ENDPOINT: inhibition at 1 µM
TEST_VALUE: 100%

MOLECULE: CN1CCN(c2ccc(-c3nccc4[nH]c(CCN5CCOCC5)cc34)cc2)CC1 [Example B2]
MEASURED_ENDPOINT: inhibition at 1 µM
TEST_VALUE: 100%

MOLECULE: Cc1cc2c(cc(CCCN3CCOCC3)n2C)c(-c2ccc(N3CCN(C(C)C)CC3)cc2)n1 [Example C6]
MEASURED_ENDPOINT: inhibition at 1 µM
TEST_VALUE: 100%

MOLECULE: COc1cc(-c2nc(C)cc3c2cc(CCN2CCOCC2)n3C)ccc1N1CCN(C(C)C)CC1 [Example B22]
MEASURED_ENDPOINT: inhibition at 1 µM
TEST_VALUE: 100%

MOLECULE: CC(C)N1CCN(c2ccc(-c3nccc4[nH]c(CN5CCCCC5)cc34)cc2)CC1 [Example A17]
MEASURED_ENDPOINT: inhibition at 1 µM
TEST_VALUE: 100%

MOLECULE: Cc1cc2c(cc(CCN3CCOCC3)n2C)c(C2CCC(N3CCN(C(C)C)CC3)CC2)n1 (centres unmarked) [Example B27]
MEASURED_ENDPOINT: inhibition at 1 µM
TEST_VALUE: 100%

MOLECULE: Cc1cc2[nH]c(CN3CCC4(CC3)CC(C)C4)cc2c(-c2ccc(N3CCN(C(C)C)CC3)cc2)n1 [Example A30]
MEASURED_ENDPOINT: inhibition at 1 µM
TEST_VALUE: 100%

MOLECULE: Cc1cc2[nH]c(Cn3cccn3)cc2c(-c2ccc(N3CCN(C(C)C)CC3)cc2)n1 [Example A28]
MEASURED_ENDPOINT: inhibition at 1 µM
TEST_VALUE: 100%

MOLECULE: CN1CCN(Cc2ccc(-c3nccc4[nH]c(CN5CCOCC5)cc34)cc2)CC1 [Example A60]
MEASURED_ENDPOINT: inhibition at 1 µM
TEST_VALUE: 0%

MOLECULE: Cc1cc2[nH]c(CN3CCOCC3)cc2c(-c2ccc(C3CCN(C(C)C)CC3)cc2)n1 [Example A51]
MEASURED_ENDPOINT: inhibition at 1 µM
TEST_VALUE: 100%

MOLECULE: CC(C)N1CCN(c2ccc(-c3nccc4[nH]c(CN5CC(F)C5)cc34)cc2)CC1 [Example A16]
MEASURED_ENDPOINT: inhibition at 1 µM
TEST_VALUE: 100%

MOLECULE: CC(C)N1CC=C(c2ccc(-c3nccc4[nH]c(CN5CCOCC5)cc34)cn2)CC1 [Example A52]
MEASURED_ENDPOINT: inhibition at 1 µM
TEST_VALUE: 100%

MOLECULE: Cc1cc2[nH]c(CCCN3CCCCC3)cc2c(-c2ccc(N3CCN(C(C)C)CC3)cc2)n1 [Example C5]
MEASURED_ENDPOINT: inhibition at 1 µM
TEST_VALUE: 94%

MOLECULE: CN1CCN(c2ccc(-c3nccc4[nH]c(CN5CCOCC5)cc34)cc2)CC1 [Example A2]
MEASURED_ENDPOINT: inhibition at 1 µM
TEST_VALUE: 100%

MOLECULE: c1cc2[nH]c(CN3CCOCC3)cc2c(-c2ccc(N3CCNCC3)cc2)n1 [Example A42]
MEASURED_ENDPOINT: inhibition at 1 µM
TEST_VALUE: 84%

MOLECULE: CC(C)N1CCN(c2ccc(-c3nccc4[nH]c(CN5CCC(O)CC5)cc34)cc2)CC1 [Example A12]
MEASURED_ENDPOINT: inhibition at 1 µM
TEST_VALUE: 95%

MOLECULE: CCN1CCN(c2ccc(-c3nc(C)cc4[nH]c(CN5CCOCC5)cc34)cc2)CC1 [Example A5]
MEASURED_ENDPOINT: inhibition at 1 µM
TEST_VALUE: 100%

Every entry's value here was drawn from patent US9643967B2.
